Cited source: patent EP1247803A2

Target: FLK-1 receptor (Mus musculus, UniProt P35918)
Construct: expressed in transfected cells; host or cells: NIH3T3 C7#3
Sequence (P35918 20-1345): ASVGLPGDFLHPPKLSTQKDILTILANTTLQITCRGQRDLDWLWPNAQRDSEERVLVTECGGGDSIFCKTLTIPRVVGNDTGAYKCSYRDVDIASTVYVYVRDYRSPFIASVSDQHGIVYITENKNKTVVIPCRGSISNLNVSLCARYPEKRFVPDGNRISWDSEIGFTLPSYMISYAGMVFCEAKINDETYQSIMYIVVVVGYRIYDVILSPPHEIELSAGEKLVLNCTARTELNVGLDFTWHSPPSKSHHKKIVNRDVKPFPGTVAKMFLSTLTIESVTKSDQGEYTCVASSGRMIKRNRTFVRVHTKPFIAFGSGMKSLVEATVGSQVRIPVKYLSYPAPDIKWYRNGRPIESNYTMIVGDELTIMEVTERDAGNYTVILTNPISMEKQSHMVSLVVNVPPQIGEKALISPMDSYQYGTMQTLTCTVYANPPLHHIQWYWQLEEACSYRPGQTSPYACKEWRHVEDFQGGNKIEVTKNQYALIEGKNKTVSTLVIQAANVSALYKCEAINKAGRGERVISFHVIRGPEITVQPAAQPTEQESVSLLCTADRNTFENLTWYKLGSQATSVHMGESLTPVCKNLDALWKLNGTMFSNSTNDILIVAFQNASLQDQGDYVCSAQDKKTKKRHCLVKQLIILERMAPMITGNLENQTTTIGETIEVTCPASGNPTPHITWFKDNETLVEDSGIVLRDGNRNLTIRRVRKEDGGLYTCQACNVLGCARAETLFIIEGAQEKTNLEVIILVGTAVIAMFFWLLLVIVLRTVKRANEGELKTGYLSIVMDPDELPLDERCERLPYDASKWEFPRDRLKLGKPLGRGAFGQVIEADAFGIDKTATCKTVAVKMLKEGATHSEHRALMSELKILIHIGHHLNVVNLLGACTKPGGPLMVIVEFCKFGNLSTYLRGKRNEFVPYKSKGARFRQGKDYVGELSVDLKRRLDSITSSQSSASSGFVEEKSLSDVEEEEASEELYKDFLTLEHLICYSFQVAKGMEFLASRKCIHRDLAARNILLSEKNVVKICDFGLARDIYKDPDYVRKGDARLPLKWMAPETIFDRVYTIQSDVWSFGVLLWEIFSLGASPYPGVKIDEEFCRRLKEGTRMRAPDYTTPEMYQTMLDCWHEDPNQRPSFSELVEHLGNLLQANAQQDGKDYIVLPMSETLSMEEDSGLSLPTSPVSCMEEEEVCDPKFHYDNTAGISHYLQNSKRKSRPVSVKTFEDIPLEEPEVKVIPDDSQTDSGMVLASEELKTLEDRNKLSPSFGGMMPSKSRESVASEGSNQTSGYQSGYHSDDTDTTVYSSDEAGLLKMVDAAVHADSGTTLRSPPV
Assay: FLK-1 ELISA (kinase activity of the FLK-1 receptor in FLK-1/NIH3T3 cells, VEGF stimulated)
Format: cell-based
We begin with a simple list: items and their reported Fik Kinase %Inhibition.
Kindly answer with a numeric value in %, unit omitted.

O=C1Nc2c(Br)cc(Br)cc2C1=Cc1c(F)cc(F)cc1F: 4.7
COc1ccc(OC)c(C=C2C(=O)Nc3ccc(I)cc32)c1: -11.1

Provide the documented Fik Kinase %Inhibition with FLK-1 receptor (Mus musculus, UniProt P35918) as the system for `O=C1Nc2ccc(I)cc2C1=Cc1cc(Cl)ccc1O`
2.8

Follow-up entry: `O=C1Nc2ccc(S(=O)(=O)Nc3ccc(C(F)(F)F)cc3)cc2C1=Cc1ccc(-c2ccccc2Cl)o1`
12.0

Follow-up entry: `CCN(CC)c1ccc(C=C2C(=O)Nc3ccc(S(=O)(=O)N4CCOCC4)cc32)cc1`
15.9

Follow-up entry: `CC(C)c1cc(C=C2C(=O)Nc3ccc(S(=O)(=O)N4CCOCC4)cc32)cc(C(C)C)c1Oc1ccccc1`
16.2

Follow-up entry: `CNS(=O)(=O)c1ccc2c(c1)C(=Cc1nn(C)cc1Cl)C(=O)N2`
17.8

Follow-up entry: `Cn1cc(Cl)c(C=C2C(=O)Nc3ccc(S(=O)(=O)Nc4ccc(C(F)(F)F)cc4)cc32)n1`
10.9

====

Test system: MET
Experiment: MET biochemical kinase assay
Set-up: species or system human; concentration or dose not given beside the values
ATTRIBUTE_MEASURED: Met Kinase % Inhibition (%)
Kindly answer with a numeric value in %, unit omitted.

Recorded Met Kinase % Inhibition, per entry:
O=C1Nc2ccc(I)cc2C1=Cc1ccc([N+](=O)[O-])o1 [10718/B11]: 69.6
COc1cccc(OC)c1C=C1C(=O)Nc2ccc(S(=O)(=O)Nc3ccc(C(F)(F)F)cc3)cc21 [10728/E03]: 11.9
Cc1c(Br)ccc2c1C(=Cc1cc(Br)cc(Br)c1O)C(=O)N2 [10734/C07]: 96.8
O=C1Nc2ccc(S(=O)(=O)Nc3ccc(C(F)(F)F)cc3)cc2C1=Cc1cc(Cl)cc(Cl)c1O [10734/E03]: 99.3
CCOC(=O)c1c(C)[nH]c(C=C2C(=O)Nc3ccc(I)cc32)c1C [10718/B02]: 52.9

Need Met Kinase % Inhibition of O=C1Nc2ccc(F)cc2C1=C1C(=O)Nc2ccc(S(=O)(=O)Nc3ccc(C(F)(F)F)cc3)cc21 [10726/E08] , thanks.
58.9

Follow-up entry: COC(=O)c1[nH]c(C)c(C=C2C(=O)Nc3c(Br)cc(Br)cc32)c1C(=O)OC [10718/A07]
58.6

Follow-up entry: O=C1Nc2c(Br)cc(Br)cc2C1=Cc1cc(Cl)ccc1O [10734/A04]
68.0

Follow-up entry: O=C1Nc2ccc(S(=O)(=O)Nc3ccc(C(F)(F)F)cc3)cc2C1=Cc1cc2c([nH]1)CCCC2 [10721/E05]
69.9

Follow-up entry: COc1cc(Br)c(O)c(C=C2C(=O)Nc3ccc(S(=O)(=O)Nc4ccc(C(F)(F)F)cc4)cc32)c1 [10718/E03]
95.3

Follow-up entry: CNS(=O)(=O)c1ccc2c(c1)C(=Cc1c(C)[nH]c(C(=O)OC)c1C(=O)OC)C(=O)N2 [10718/D07]
26.1

Follow-up entry: Cc1ccc(C=C2C(=O)Nc3ccc(I)cc32)s1 [10717/B07]
90.0

====

Biological target: EGFR (Homo sapiens, UniProt P00533)
Construct: Add 7 ug A431 cell lysate per well (EGFR source); endogenous in cells; host or cells: A431
Sequence (P00533 25-1210): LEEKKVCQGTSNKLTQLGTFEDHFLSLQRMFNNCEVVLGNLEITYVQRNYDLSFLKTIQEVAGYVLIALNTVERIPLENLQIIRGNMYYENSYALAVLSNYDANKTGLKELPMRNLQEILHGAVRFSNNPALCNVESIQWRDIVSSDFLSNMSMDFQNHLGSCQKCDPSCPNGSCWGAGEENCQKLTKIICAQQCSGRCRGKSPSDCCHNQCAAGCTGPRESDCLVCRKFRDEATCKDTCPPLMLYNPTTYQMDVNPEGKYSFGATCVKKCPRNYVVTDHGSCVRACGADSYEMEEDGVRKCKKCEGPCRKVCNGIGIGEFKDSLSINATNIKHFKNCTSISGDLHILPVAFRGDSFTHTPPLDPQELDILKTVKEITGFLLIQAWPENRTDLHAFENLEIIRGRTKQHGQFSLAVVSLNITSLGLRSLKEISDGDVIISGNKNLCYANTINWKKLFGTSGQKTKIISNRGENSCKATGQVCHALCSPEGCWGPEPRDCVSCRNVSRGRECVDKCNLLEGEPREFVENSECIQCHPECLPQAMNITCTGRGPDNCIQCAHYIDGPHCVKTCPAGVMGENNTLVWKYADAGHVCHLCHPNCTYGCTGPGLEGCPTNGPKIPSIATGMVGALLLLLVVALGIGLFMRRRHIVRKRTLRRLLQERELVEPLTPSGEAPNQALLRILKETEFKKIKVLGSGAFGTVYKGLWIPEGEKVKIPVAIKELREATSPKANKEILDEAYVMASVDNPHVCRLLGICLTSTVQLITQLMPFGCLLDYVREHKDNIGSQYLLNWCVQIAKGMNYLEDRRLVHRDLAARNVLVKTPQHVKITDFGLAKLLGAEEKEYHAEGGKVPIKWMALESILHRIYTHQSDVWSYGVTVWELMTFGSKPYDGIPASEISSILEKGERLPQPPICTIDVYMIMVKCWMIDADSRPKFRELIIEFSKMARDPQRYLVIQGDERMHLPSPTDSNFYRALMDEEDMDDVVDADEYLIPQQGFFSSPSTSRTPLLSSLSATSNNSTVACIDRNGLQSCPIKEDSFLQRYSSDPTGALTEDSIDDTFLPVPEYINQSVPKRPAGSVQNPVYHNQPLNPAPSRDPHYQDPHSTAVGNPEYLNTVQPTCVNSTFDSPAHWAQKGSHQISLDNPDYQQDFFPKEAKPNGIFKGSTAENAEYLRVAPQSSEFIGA
Assay: EGFR ELISA assay (in vitro kinase activity, EGFR captured from A431 cell lysate)
Format: biochemical
Set-up: concentration or dose not given beside the values
We begin with a simple list: items and their reported Biochem EGFR %Inhibition.
Kindly answer with a numeric value in %, unit omitted.

Recorded Biochem EGFR %Inhibition, per entry:
CNS(=O)(=O)c1ccc2c(c1)C(=Cc1ccc(C#N)cc1)C(=O)N2: 15.1
CCCCN(CCCC)c1ccc(C=C2C(=O)Nc3c(Br)cc(Br)cc32)cc1: -4.2

Need Biochem EGFR %Inhibition of `CC(=O)n1cc(C=C2C(=O)Nc3ccc(CCCl)cc32)c2ccccc21` , thanks.
-18.2

Follow-up entry: `Cc1c(Br)ccc2c1C(=C1C(=O)N(C)c3ccccc31)C(=O)N2`
20.9

====

Molecular target: EGFR (Homo sapiens, UniProt P00533)
Construct: Add 7 ug A431 cell lysate per well (EGFR source); endogenous in cells; host or cells: A431
Assay: EGFR ELISA assay (in vitro kinase activity, EGFR captured from A431 cell lysate)
Type: biochemical
Set-up: concentration or dose not given beside the values
We begin with a simple list: items and their reported Biochem EGFR %Inhibition.
Kindly answer with a numeric value in %, unit omitted.

Recorded Biochem EGFR %Inhibition, per entry:
COc1c(O)ccc(C=C2C(=O)Nc3ccc(Br)c(C)c32)c1[N+](=O)[O-]: 15.8
CNS(=O)(=O)c1ccc2c(c1)C(=Cc1ccc(Br)s1)C(=O)N2: 14.6
Cc1c(Br)ccc2c1C(=Cc1cccc(C(F)(F)F)c1F)C(=O)N2: 8.3

Need Biochem EGFR %Inhibition of `COc1cc(C)cc(O)c1C=C1C(=O)Nc2ccc(S(=O)(=O)N3CCOCC3)cc21` , thanks.
-37.8

Follow-up entry: COC1CC(C=C2C(=O)Nc3ccc(CCCl)cc32)C(OC)O1 (stereo not drawn)
3.1

Follow-up entry: `COc1cc(C=C2C(=O)Nc3ccc(I)cc32)cc(OC)c1`
-2.0

Follow-up entry: `O=C1Nc2ccc(CCCl)cc2C1=Cc1cc2ccccc2o1`
-11.7

Follow-up entry: `O=C1Nc2c(Br)cc(Br)cc2C1=Cc1cccc([N+](=O)[O-])c1`
8.2

Follow-up entry: `CNS(=O)(=O)c1ccc2c(c1)C(=Cc1nc3ccccc3n1C)C(=O)N2`
21.5

====

We begin with a simple list: items and their reported Met Kinase % Inhibition.
Tested on: MET
Assay: MET biochemical kinase assay
Parameters: species or system human; concentration or dose not given beside the values
Kindly answer with a numeric value in %, unit omitted.

Provide the documented Met Kinase % Inhibition with MET as the system for COc1cc(C=C2C(=O)Nc3ccc(CCCl)cc32)cc2c1OCO2 [10728/G11]
71.4

Follow-up entry: COc1c(C(C)C)cc(C=C2C(=O)Nc3ccc(S(=O)(=O)Nc4ccc(C(F)(F)F)cc4)cc32)cc1C(C)C [10732/E03]
3.9

Follow-up entry: CC(C)c1cc(C=C2C(=O)Nc3ccc(S(=O)(=O)Nc4ccc(C(F)(F)F)cc4)cc32)cc(C(C)C)c1Oc1ccccc1 [10732/E04]
8.2

Follow-up entry: CNS(=O)(=O)c1ccc2c(c1)C(=Cc1ccc(N(C)C)cc1)C(=O)N2 [10719/D08]
45.2

Follow-up entry: COc1c(C(C)C)cc(C=C2C(=O)Nc3ccc(CCCl)cc32)cc1C(C)C [10732/G03]
38.1

====

Target: EGFR (Homo sapiens, UniProt P00533)
Construct: Add 7 ug A431 cell lysate per well (EGFR source); endogenous in cells; host or cells: A431
Assay: EGFR ELISA assay (in vitro kinase activity, EGFR captured from A431 cell lysate)
Assay type: biochemical
Parameters: concentration or dose not given beside the values
ATTRIBUTE_MEASURED: Biochem EGFR %Inhibition (%)
Kindly answer with a numeric value in %, unit omitted.

CCOC(=O)c1c(C)[nH]c(C=C2C(=O)Nc3ccc(S(=O)(=O)N4CCOCC4)cc32)c1C [10718/F02]: 17.8
O=C1Nc2ccc(S(=O)(=O)N3CCOCC3)cc2C1=Cc1ccc([N+](=O)[O-])cc1 [10734/F06]: -17.1
O=C1Nc2ccc(CCCl)cc2C1=Cc1csc([N+](=O)[O-])c1 [10722/G09]: -5.9
COc1ccc(C=C2C(=O)Nc3ccc(CCCl)cc32)c(O)c1 [10723/G09]: -32.6
Cc1c(Br)ccc2c1C(=Cc1ccc(O)c(Br)c1)C(=O)N2 [10734/C09]: 36.2

Need Biochem EGFR %Inhibition of CC(C)(C)c1ccc(C=C2C(=O)Nc3ccc(CCCl)cc32)cc1 [10734/G10] , thanks.
3.8

Follow-up entry: O=C1Nc2ccc(I)cc2C1=Cc1cccnc1 [10729/B08]
53.2

Follow-up entry: COc1c(C)cc(C=C2C(=O)Nc3ccc(S(=O)(=O)Nc4ccc(C(F)(F)F)cc4)cc32)cc1C [10733/E06]
37.3

Follow-up entry: O=C1Nc2ccc(CCCl)cc2C1=Cc1ccc([N+](=O)[O-])c(O)c1 [10724/G04]
12.9
